So I've got a bunch of variants here, and I need their KM values.
B1: glmS ribozyme (parent)
chain: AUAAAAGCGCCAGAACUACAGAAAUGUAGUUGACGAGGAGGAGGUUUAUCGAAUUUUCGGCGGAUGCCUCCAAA

variants of: B1; experiment: KM; higher = weaker cofactor use; RNA array; conditions: with glucosamine-6-phosphate
Give your result in µM as a bare value.

Asked: # lookup: KM of A14G A33C
Given back: 1470

Asked: # lookup: KM of U55G U57C
Given back: 4830

Asked: # lookup: KM of A6U C16U
Given back: 1970

Asked: # lookup: KM of G43U A64G
Given back: 6370

Asked: # lookup: KM of U31G G40A
Given back: 1460

Asked: # lookup: KM of G29C G32A
Given back: 1960

Asked: # lookup: KM of G41A U45A
Given back: 140

Asked: # lookup: KM of U49G G66U
Given back: 5640

Asked: # lookup: KM of A12C A53C
Given back: 2090

Asked: # lookup: KM of A39G C71U
Given back: 370

Asked: # lookup: KM of C10U U31A
Given back: 5120

Asked: # lookup: KM of G32C U47A
Given back: 1450

Asked: # lookup: KM of G29C G32U
Given back: 7540

Asked: # lookup: KM of C11A U54A
Given back: 1490

Asked: # lookup: KM of G41U U56A
Given back: 4700

Asked: # lookup: KM of U47A U56C
Given back: 3940

Asked: # lookup: KM of C16G U30A
Given back: 1780

Asked: # lookup: KM of A15G C16G
Given back: 2660

Asked: # lookup: KM of C61G G63C
Given back: 181

Asked: # lookup: KM of G43U C68G
Given back: 527

Asked: # lookup: KM of A14C A15C
Given back: 2740

Asked: # lookup: KM of G13C C67G
Given back: 189
